Below is a list of entries, each paired with its recorded Ki value.
assay: Inhibition of Calpain; set-up: species or system Gallus gallus
Where a SMILES comes first, the peptide text is derived from it. The star is where a group is joined. Cbz = O=C(OCc1ccccc1)*
Give your result in µM as a bare value.

COMPOUND	VALUE_UNIT	Ki
O=C[C@H](Cc1ccccc1)NC(=O)c1ccccc1	µM	4

**Query** Query: Ki; subject: CC(C)[C@H](NC(=O)OCc1ccccc1)C(=O)N[C@H](C=O)Cc1ccccc1 (Cbz-Val-Phe-aldehyde)
**Result** 0.01

**Query** Would you kindly share the measured Ki for CCOC(=O)C(=O)[C@H](Cc1ccccc1)NC(=O)OCc1ccccc1 ?
**Result** 92

----------
biological target: Chymotrypsinogen A (Bos taurus, UniProt P00766)
REPORTED_ENDPOINT: pKi
Lab note — pKi values are minus log10 of concentrations in M.

SMILES_TEXT	pKi
CC(C)[C@H](NC(=O)OCc1ccccc1)C(=O)N[C@H](Cc1ccccc1)C(=O)C(F)(F)F	4.35
CC(=O)C(=O)[C@H](Cc1ccccc1)NC(=O)OCc1ccccc1	5.92
O=C[C@H](Cc1ccccc1)NC(=O)OCc1ccccc1	3.44

**Query** Request - read-out pKi | tested on Chymotrypsinogen A (Bos taurus, UniProt P00766) | compound O=C(N[C@@H](Cc1ccccc1)C(=O)C(F)F)c1ccccc1
**Result** 5.11

**Query** // map CCOC(=O)C(=O)[C@H](Cc1ccccc1)NC(=O)[C@@H](NC(=O)OCc1ccccc1)C(C)C to recorded pKi (system: Chymotrypsinogen A (Bos taurus, UniProt P00766))
**Result** 7.22

----------
target: Chymotrypsinogen A (Bos taurus, UniProt P00766)
Where a SMILES comes first, the peptide text is derived from it. The star is where a group is joined. Cbz = O=C(OCc1ccccc1)*
REPORTED_ENDPOINT: Ki (nM)
Expressed in nM, but write only the number.

COMPOUND	REPORTED_ENDPOINT	VALUE_UNIT	QUANTITATIVE_READOUT
CCOC(=O)C(=O)[C@H](Cc1ccccc1)NC(=O)OCc1ccccc1	Ki	nM	130
CC(C)[C@H](NC(=O)OCc1ccccc1)C(=O)N[C@H](C=O)Cc1ccccc1 (Cbz-Val-Phe-aldehyde)	Ki	nM	54000

**Query** Which value of Ki has been reported for CC(C)[C@H](NC(=O)OCc1ccccc1)C(=O)N[C@@H](Cc1ccccc1)C(=O)C(F)(F)F in the records?
**Result** 2400

----------
experiment: Inhibition of Calpain; set-up: species or system Gallus gallus
pKi: −log10 of the molar value.
Outcome: Fulfilled for pKi of at least 4; Not fulfilled for anything lower.

Examples with answers:
SMILES_TEXT	LABEL_CLASS
CC(=O)C(=O)[C@H](Cc1ccccc1)NC(=O)[C@@H](NC(=O)OCc1ccccc1)C(C)C	Fulfilled
CC(=O)C(=O)[C@H](Cc1ccccc1)NC(=O)OCc1ccccc1	Not fulfilled
COC(=O)C(=O)[C@H](Cc1ccccc1)NC(=O)c1ccccc1	Not fulfilled
COC(=O)C(=O)[C@H](Cc1ccccc1)NC(=O)[C@@H](NC(=O)OCc1ccccc1)C(C)C	Fulfilled
O=C[C@H](Cc1ccccc1)NC(=O)OCc1ccccc1	Fulfilled

**Query** Has CC(=O)[C@H](Cc1ccccc1)NC(=O)OCc1ccccc1 a recorded pKi greater than or equal to 4?
**Result** Not fulfilled

**Query** Evaluate CCOC(=O)C(=O)[C@H](Cc1ccccc1)NC(=O)[C@@H](NC(=O)OCc1ccccc1)C(C)C : pKi at minimum 4?
**Result** Fulfilled

**Query** Identify whether the reported pKi of the following compound is 4 or greater: CC(C)[C@H](NC(=O)OCc1ccccc1)C(=O)N[C@H](Cc1ccccc1)C(=O)C(F)(F)F
**Result** Not fulfilled

**Query** Hello, I need to know if CC(C)[C@H](NC(=O)OCc1ccccc1)C(=O)N[C@@H](Cc1ccccc1)C(=O)C(F)(F)F has measured pKi not below 4. Thanks!
**Result** Not fulfilled
